Where these numbers come from: PubChem BioAssay AID330

# Tested on: P388 leukemia ip, CD2F1 mice, survival T/C
# assay-text: NCI In Vivo Anticancer Drug Screen. Data for tumor model P388 Leukemia (intraperitoneal) in CD2F1 (CDF1) mice
# condition-notes: endpoint: median survival time; dose: 6.25 mg/kg/injection; schedule: Q01DX009 (ip); vehicle: Klucel (hydroxypropylcellulose) (HPC); higher = longer survival
Toxic doses and inconclusive results are not listed.
measurement-label: T/C

>  <smiles-str>
COC(C)(C)O/N=C(\C[P+](c1ccccc1)(c1ccccc1)c1ccccc1)c1ccc(Cl)cc1

>  <T/C>
109 % of control

$$$$
>  <smiles-str>
COc1cc2c(c(OC)c1OC)-c1ccc(S(C)(=O)=O)c(=O)cc1[C@@H](NC(C)=O)CC2

>  <T/C>
115 % of control

$$$$

Kindly consider the entry below.
query: Entry "NC(=O)c1cc([N+](=O)[O-])cc([N+](=O)[O-])c1Cl" : reported T/C = ?
result: 102 % of control

----------
# Test system: P388 leukemia ip, CD2F1 mice, survival T/C
# assay-text: NCI In Vivo Anticancer Drug Screen. Data for tumor model P388 Leukemia (intraperitoneal) in CD2F1 (CDF1) mice
# condition-notes: endpoint: median survival time; dose: 200.0 mg/kg/injection; schedule: Q04DX003 (ip); vehicle: Klucel (hydroxypropylcellulose) (HPC)
Toxic doses and inconclusive results are not listed. Rule for the calls: active = survival T/C of 150% or more; inactive = T/C below 125% in these data.
The reply should be one of these categories: 1.0 (active), 0.0 (inactive)

>  <compound>
Nc1ncnc2c1ncn2C1OC(CO)C(O)C1O (configuration not stated)

>  <system-under-test>
P388 leukemia ip, CD2F1 mice, survival T/C

>  <category-label>
0.0

$$$$
>  <compound>
COc1ccc(OC)c(/C=C/C2=C(C)C(=O)CC(c3cc(OC)ccc3OC)C2C)c1 (configuration not stated)

>  <system-under-test>
P388 leukemia ip, CD2F1 mice, survival T/C

>  <category-label>
0.0

$$$$
>  <compound>
Cc1nc2nnc(N)n2nc1C

>  <system-under-test>
P388 leukemia ip, CD2F1 mice, survival T/C

>  <category-label>
0.0

$$$$
>  <compound>
CC(C)C1OC2(CCCC2)OCC1(C)C (configuration not stated)

>  <system-under-test>
P388 leukemia ip, CD2F1 mice, survival T/C

>  <category-label>
0.0

$$$$
>  <compound>
NC(=O)c1[nH]cnc1/N=N/N(CCCl)Cc1ccccc1

>  <system-under-test>
P388 leukemia ip, CD2F1 mice, survival T/C

>  <category-label>
1.0

$$$$
>  <compound>
C[C@H]1CCC/C=C/[C@@H]2C[C@H](O)C[C@H]2[C@H](O)/C=C/C(=O)O1

>  <system-under-test>
P388 leukemia ip, CD2F1 mice, survival T/C

>  <category-label>
0.0

$$$$

Would you kindly look at the next entry?
query: Tell me the recorded outcome of this test for CC(=O)Nc1ccc(CN2CC(C)N(N)C(C)C2)cc1 (configuration not stated) .
result: 0.0

----------
# System: P388 leukemia ip, CD2F1 mice, survival T/C
# assay-text: NCI In Vivo Anticancer Drug Screen. Data for tumor model P388 Leukemia (intraperitoneal) in CD2F1 (CDF1) mice
# condition-notes: endpoint: median survival time; dose: 60.0 mg/kg/injection; schedule: Q01DX005 (ip); vehicle: saline with Tween-80; higher = longer survival
Toxic doses and inconclusive results are not listed.
I'd appreciate it if you could supply T/C values for the items below.

>  <compound>
CSC1=NSC(c2ccccc2)=C(c2ccccc2)S1

>  <T/C>
111 % of control

$$$$
>  <compound>
CNC(=O)Nc1[nH]c(=O)ncc1Cl

>  <T/C>
112 % of control

$$$$
>  <compound>
CC1(C)OC(=O)C2(O1)C(=O)C1CCCCC12C (stereo not drawn)

>  <T/C>
100 % of control

$$$$
>  <compound>
BrCCCC1OCCO1

>  <T/C>
100 % of control

$$$$
>  <compound>
C=C(C)C(O)CCCO[Si](c1ccccc1)(c1ccccc1)C(C)(C)C (stereo not drawn)

>  <T/C>
94 % of control

$$$$
>  <compound>
O=C(Nc1ccc(Cl)cc1)Nc1nnc2nc(C(C(=O)c3ccc(Cl)cc3Cl)c3nc4nnc(NC(=O)Nc5ccc(Cl)cc5)n4[nH]c3=O)c(=O)[nH]n12

>  <T/C>
103 % of control

$$$$

The following compounds each have a reported value; give each one's T/C.
1. COc1ccc2c(c1)CN1C(CCC3c4ccccc4NC31)C2 (stereo not drawn)
2. COc1ccc(/C=C/C(=O)C(C)(C)CN(C)CCN(C)C)cc1

result:
99 % of control
100 % of control

----------
# System: P388 leukemia ip, CD2F1 mice, survival T/C
# assay-text: NCI In Vivo Anticancer Drug Screen. Data for tumor model P388 Leukemia (intraperitoneal) in CD2F1 (CDF1) mice
# condition-notes: endpoint: median survival time; dose: 50.0 mg/kg/injection; schedule: Q01DX005 (ip); vehicle: saline with Tween-80; higher = longer survival
Inconclusive results and toxic doses are left out.
measurement-label: T/C

The cases that follow already have their T/C on record.
>  <compound>
Cc1ccc(N)c(C(=O)Nc2ccc(Br)cc2)c1

>  <result>
101 % of control

$$$$
>  <compound>
CC(C)OC1NC(=O)Oc2ccccc21 (stereo not given)

>  <result>
104 % of control

$$$$
>  <compound>
CN(C)Nc1ncnc2c1ncn2C

>  <result>
103 % of control

$$$$
>  <compound>
CCOC(=O)C1CSC(c2c(COP(=O)(O)O)cnc(C)c2O)N1 (stereo not given)

>  <result>
96 % of control

$$$$

Kindly consider the entry below.
query: Entry "CCO/C(C)=C\C(=O)O" : reported T/C = ?
result: 98 % of control

----------
# Test system: P388 leukemia ip, CD2F1 mice, survival T/C
# assay-text: NCI In Vivo Anticancer Drug Screen. Data for tumor model P388 Leukemia (intraperitoneal) in CD2F1 (CDF1) mice
# condition-notes: endpoint: median survival time; dose: 50.0 mg/kg/injection; schedule: Q01DX009 (ip); vehicle: Klucel (hydroxypropylcellulose) (HPC); higher = longer survival
Toxic doses and inconclusive results are not listed.
measurement-label: T/C

The cases that follow already have their T/C on record.
>  <smiles-str>
C/C(=N\NS(=O)(=O)c1ccc(C)cc1)c1c(C)noc1C

>  <T/C>
94 % of control

$$$$
>  <smiles-str>
Cn1c2nc3ccccc3c-2nc2ccccc21

>  <T/C>
109 % of control

$$$$
>  <smiles-str>
O=C(Nc1cccc(Cl)c1)c1cc(N=Nc2ccc([N+](=O)[O-])cc2Cl)ccc1O

>  <T/C>
113 % of control

$$$$

Kindly consider the entry below.
query: Entry "COc1ccc(C(=O)N2C(=O)CCC2=O)cc1" : reported T/C = ?
result: 109 % of control

----------
# Test system: P388 leukemia ip, CD2F1 mice, survival T/C
# assay-text: NCI In Vivo Anticancer Drug Screen. Data for tumor model P388 Leukemia (intraperitoneal) in CD2F1 (CDF1) mice
# condition-notes: endpoint: median survival time; dose: 25.0 mg/kg/injection; schedule: Q01DX005 (ip); vehicle: saline with Tween-80; higher = longer survival
Toxic doses and inconclusive results are not listed.
measurement-label: T/C

The cases that follow already have their T/C on record.
>  <smiles-str>
Cc1ccc(C(=Nc2ccccc2)N=P(c2ccccc2)(c2ccccc2)c2ccccc2)cc1

>  <result>
103 % of control

$$$$
>  <smiles-str>
CC1=C(OS(C)(=O)=O)CCC1=O

>  <result>
103 % of control

$$$$

Kindly consider the entry below.
query: Item "CCOC(=O)Nc1cc2c(c(N)n1)N=C(c1ccc(Cl)cc1Cl)CN2" with P388 leukemia ip, CD2F1 mice, survival T/C - T/C?
result: 90 % of control

----------
# System: P388 leukemia ip, CD2F1 mice, survival T/C
# assay-text: NCI In Vivo Anticancer Drug Screen. Data for tumor model P388 Leukemia (intraperitoneal) in CD2F1 (CDF1) mice
# condition-notes: endpoint: median survival time; dose: 100.0 mg/kg/injection; schedule: Q01DX009 (ip); vehicle: saline with Tween-80; higher = longer survival
Inconclusive results and toxic doses are left out.
measurement-label: T/C

The cases that follow already have their T/C on record.
>  <compound>
CC(CN=C(CC(=O)c1ccccc1)c1ccccc1)N=C(CC(=O)c1ccccc1)c1ccccc1.[Cu] (stereo not given)

>  <result>
106 % of control

$$$$
>  <compound>
c1csc(NC(Nc2nccs2)C23CC4CC(CC(C4)C2)C3)n1

>  <result>
101 % of control

$$$$
>  <compound>
Nc1nc(/C=C(/O)c2ccccc2)c2ncn(C3OC(CO)C(O)C3O)c2n1 (stereo not given)

>  <result>
103 % of control

$$$$

The following compounds each have a reported value; give each one's T/C.
1. O=C1CCCCCCCCCCC1Br (stereo not given)
2. COc1ccc(CCN2COc3ccc4ccc(=O)oc4c3C2)cc1OC

result:
100 % of control
100 % of control

The following compounds each have a reported value; give each one's T/C.
1. N#C/C(C(=N)c1ccccc1)=C1\SS/C(=C(\C#N)C(=N)c2ccccc2)S1
2. COC(=O)/C(=C\c1ccncc1)c1cccc2ccccc12
3. CC(C)(C)N(O)c1cccc(P(=O)(c2ccccc2)c2ccccc2)c1
4. Cn1c(O)c(N=O)c(=O)n(C)c1=O

result:
["107 % of control", "104 % of control", "92 % of control", "111 % of control"]
